Assay Target: human GLP-1R (human, UniProt P43220 24-463)
Experiment Notes: cell-based or functional assay
Starred links: 1 amine or outer side, 2 acyl side, 3 side chain; linkers in the order of their positions; H or OH if unused. Non-standard residues stand in square brackets, D forms with d. Groups on a side chain read outwards from the residue. No end group written: not given here. *: point of attachment. C15 diacid = O=C(O)CCCCCCCCCCCCCC(=O)*; γGlu = O=C(O)[C@H](CCC(=O)[*:2])N[*:1]; Palmitoyl = CCCCCCCCCCCCCCCC(=O)*; Aib = CC(C)(N)C(=O)O
Recorded Metric: GLP1R pEC50
// no unit string in output, number only

Q: Entry under review: Y[dA]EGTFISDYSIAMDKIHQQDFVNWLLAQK-OH [Compound No. 4] . Reported GLP1R pEC50?
Ans: 6.5

Q: Same again, this time with YXEGTFISDYSIXXDKIHQQDFVNWLLAQKGKKNDWKHNITQ (3,5-diBr-Tyr at 1; Aib at 2; Aib at 13; Nle at 14; C-terminal -OH) [Compound No. 8]
Ans: 6.9

Q: Same for YAEGTFISDYSIAMDKIHQQDFVNWLLAQKGKKNDWKHNIIQ (Lys-(palmitoyl acyl fatty acid acyl) at 16; C-terminal -NH2) [Compound No. 3]
Ans: 6.8

Q: Please do the same for Y[Aib]EGTFISDYSIAMDKK([γGlu-Palmitoyl])HQQDFVNWLLAQKGKKNDWKHNIIQ-OH (not fully specified; also: acyl given as C16DA in synthesis) [Compound No. 5] as well.
Ans: 7

Q: Next binder: Y[Aib]EGTFISDYSIALDKK([ethylene glycol-ethylene glycol-C15 diacid])HQQDFVNWLLAQR-NH2 [Compound No. 27]
Ans: 6.02
